- Assay name: qHTS of Nrf2 Activators: LOPAC Validation (AID 624149); note: 0% is about no effect
- Setup conditions: Nrf2/ARE reporter cell assay; series mostly up to 46.1 µM
Activity calls are given as the source filed them. Calls come from the whole dose curve; as a rule, active = well fitted curve in the direction sought with a large enough effect; inconclusive = small, poorly fitted or top-dose-only effect, or effect the other way, or another doubt; inactive = no such curve, though single readings can be large or run the other way.

Compound: Nc1nc(SCc2ccc([N+](=O)[O-])cc2)c2ncn([C@@H]3O[C@H](CO)[C@@H](O)[C@H]3O)c2n1
outcome: inactive

Compound: CN(C)CCC(c1ccc(Cl)cc1)c1ccccn1 (stereo unspecified)
outcome: inactive

Compound: CC1OC1P(=O)(O)O (stereo unspecified)
outcome: inactive

Compound: O=C(c1ccc(OCCCc2cnc[nH]2)cc1)C1CC1
outcome: inactive

Compound: O=C(c1cc(O)c(O)c([N+](=O)[O-])c1)c1ccccc1F
outcome: inactive

Compound: CCCCC#Cc1nc(NC)c2ncn([C@@H]3O[C@H](CO)[C@@H](O)[C@H]3O)c2n1
outcome: inactive

----------
- Assay name: AP1 Signaling Pathway (AID 357);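 note: ME-180 reporter cells stimulated with EGF at its EC50 level; % is set by controls: 0 for no effect and ±100 for the full control effect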
- Setup conditions: ME-180 (cervical carcinoma) AP-1-bla reporter, EGF-induced, beta-lactamase ratio, 5 h; at 38 µM (top of the series)
- Method: NCGC Assay Overview: Activator protein-1 (AP-1), a transcription factor, plays an important role in tumor genesis by regulating genes involved in cell proliferation, differentiation, apoptosis, and angiogenesis. AP-1 activity is induced by a complex network of signaling pathways that involves extracellular signals, such as growth factors. […] Library compounds were measured for their ability to modulate positively or negatively the action of EC50 EGF on reporter gene activity. […]
Results filed as inconclusive are left out. Active and inactive are the calls of the source. Calls come from the whole dose curve; as a rule, active = well fitted curve in either direction with a large enough effect (not every such curve was filed as active); inconclusive = small, poorly fitted or top-dose-only effect, or another doubt; inactive = flat fitted curve, though single readings scatter.

Entry smiles: CN1CCc2cc(NC(=O)Nc3cccnc3)ccc21
activity change, negative = inhibition: -1.43% (inactive)

Entry smiles: CC(=O)SCC[N+](C)(C)C
activity change, negative = inhibition: 9.91% (inactive)

Entry smiles: C[N+](C)(CCCCCC[N+](C)(C)CCCN1C(=O)c2cccc3cccc(c23)C1=O)CCCN1C(=O)c2cccc3cccc(c23)C1=O
activity change, negative = inhibition: 14% (inactive)

Entry smiles: N=C(N)SCCc1ccc(CCSC(=N)N)cc1
activity change, negative = inhibition: 14.8% (inactive)

Entry smiles: O=C(c1cc(O)c(O)c([N+](=O)[O-])c1)c1ccccc1F
activity change, negative = inhibition: -17.8% (inactive)

Entry smiles: O=c1[nH]c2cc(Cl)c(Cl)cc2[nH]c1=O
activity change, negative = inhibition: -8.09% (inactive)

Entry smiles: O=C(Nc1cccc(C(=O)Nc2ccc(S(=O)(=O)O)c3cc(S(=O)(=O)O)cc(S(=O)(=O)O)c23)c1)Nc1cccc(C(=O)Nc2ccc(S(=O)(=O)O)c3cc(S(=O)(=O)O)cc(S(=O)(=O)O)c23)c1
activity change, negative = inhibition: -2.72% (inactive)

Entry smiles: CCCn1c(=O)c2[nH]c(-c3ccc(OCC(=O)NCCN)cc3)nc2n(CCC)c1=O
activity change, negative = inhibition: 6.39% (inactive)

Entry smiles: N.N.O=C(O)C1(C(=O)O)CCC1.[Pt]
activity change, negative = inhibition: -8.77% (inactive)

Entry smiles: Cc1nc2sccn2c(=O)c1CCN1CCC(=C(c2ccccc2)c2ccc(F)cc2)CC1
activity change, negative = inhibition: 8.49% (inactive)

Entry smiles: CN(C)c1nc(N)c(C(=O)N=C(N)N)nc1Cl
activity change, negative = inhibition: 10.7% (inactive)

Entry smiles: COc1cccc(C(=O)NCCN2CCN(c3ccc(Cl)cc3)CC2)c1
activity change, negative = inhibition: -7.5% (inactive)

Entry smiles: NC[C@@H]1O[C@H](C23CC4CC(CC(C4)C2)C3)Cc2c1ccc(O)c2O
activity change, negative = inhibition: -6.97% (inactive)

Entry smiles: O=C1C(SCCO)=C(SCCO)C(=O)c2ccccc21
activity change, negative = inhibition: -104% (active)

Entry smiles: COc1ccccc1CNCCCCCCNCCCCCCCCNCCCCCCNCc1ccccc1OC
activity change, negative = inhibition: -8.92% (inactive)

Entry smiles: C[N+]1(C)CCC(OC(=O)C(c2ccccc2)c2ccccc2)CC1
activity change, negative = inhibition: 10.3% (inactive)

Entry smiles: Cc1cc(NC(=O)Nc2ccc3c(ccn3C)c2)sn1
activity change, negative = inhibition: -21.3% (inactive)

Entry smiles: NCCCCCCCCCCN
activity change, negative = inhibition: 4.16% (inactive)

Entry smiles: CCCCN1CCC(n2c(=O)[nH]c3ccccc32)CC1
activity change, negative = inhibition: -4.94% (inactive)

Entry smiles: O=c1[nH]c2ccccc2n1CCCN1CCN(C(c2ccccc2)c2ccccc2)CC1
activity change, negative = inhibition: -17.6% (inactive)

Entry smiles: Cn1c(=O)c2[nH]c(-c3ccccc3)nc2n(C)c1=O
activity change, negative = inhibition: 14.7% (inactive)

Entry smiles: CC(C)(C=O)Cc1cc(C(C)(C)C)c(O)c(C(C)(C)C)c1
activity change, negative = inhibition: 5.89% (inactive)

Entry smiles: Clc1ccc(N2CCN(Cc3c[nH]c4ncccc34)CC2)cc1
activity change, negative = inhibition: -4.78% (inactive)

Entry smiles: Fc1ccc(C(OCCCc2cnc[nH]2)c2ccc(F)cc2)cc1
activity change, negative = inhibition: 26.5% (inactive)

Entry smiles: c1cnc2c(c1)ccc1cccnc12
activity change, negative = inhibition: 0.206% (inactive)

Entry smiles: O=c1[nH]c2cc([N+](=O)[O-])c([N+](=O)[O-])cc2[nH]c1=O
activity change, negative = inhibition: -3.93% (inactive)

Entry smiles: NCCCCC(=O)O
activity change, negative = inhibition: -6.31% (inactive)

Entry smiles: N#C/C(=C\c1ccc(O)c(O)c1)C(=O)c1ccc(O)c(O)c1
activity change, negative = inhibition: -8.79% (inactive)

Entry smiles: O=c1[nH]c2cc(C(F)(F)F)ccc2n1-c1cc(C(F)(F)F)ccc1O
activity change, negative = inhibition: -14.9% (inactive)

Entry smiles: NC(=O)C(=O)O
activity change, negative = inhibition: 0.648% (inactive)

Entry smiles: NO
activity change, negative = inhibition: 6.61% (inactive)

Entry smiles: O=Nc1ccc2oc(=O)ccc2c1
activity change, negative = inhibition: 22.8% (inactive)

Entry smiles: NCCCS(=O)(=O)O
activity change, negative = inhibition: -1.95% (inactive)

Entry smiles: CN(C)C(N)=NCCC[C@H](N)C(=O)O
activity change, negative = inhibition: 3.1% (inactive)

Entry smiles: NCCSSCCN
activity change, negative = inhibition: -9.31% (inactive)
